- Tested on: Proteinase K
- methodDescription: Protease resistance of LATM2 (SDS-PAGE)
- measurementContext: 5 μM Proteinase K, 30° C., 15 min, presence or absence of biotin
propertyMeasured: decomposition by Proteinase K

molecule="TM2 W80K: TM2 in which the 80th tryptophan was replaced with lysine; amino acid sequence SEQ ID NO: 4 (protein, Synthetic TM2 W80K) MSDVQSSLTGTWYNELNSKMELTANKDGTLTGKYLSKVGDVYVPYPLSGRYNLQPPAGQGVALGWAVSWENSKIHSATTKSGQFFSESSPVILTQWLLSSSTARGDVWESTLVGNDSFTKTAPTEQQIAHAQLHCRAPRLK" recordedvalue="hardly decomposed"
molecule="TM2P46T-T78A: TM2 with 46th proline replaced with threonine and 78th threonine with alanine; SEQ ID NO: 14 (protein, Synthetic TM2 P46T-T78A) MSDVQSSLTGTWYNELNSKMELTANKDGTLTGKYLSKVGDVYVPYTLSGRYNLQPPAGQGVALGWAVSWENSKIHSAATWSGQFFSESSPVILTQWLLSSSTARGDVWESTLVGNDSFTKTAPTEQQIAHAQLHCRAPRLK" recordedvalue="hardly decomposed"
